System: UEA-1 binding sites on Caco-2 cell membrane preparations
Experiment: Two tier competition assay: compound incubated alone with membranes, biotinylated UEA-1 added in next step
Set-up: species or system human
Settings: Table 8, galloyl constructs; read-out: IC 50 (uM) 2nd tier
Procedure: The epithelial cell binding ability of compounds and mixtures obtained from synthetic combinatorial libraries was determined by competition assays. […] • 1. […] The protein concentration was determined using e.g. a Bio-Rad protein assay. • 9. […] The plates were flicked out, patted dry and biotinylated UEA-1 was detected with commercial Streptavidin conjugated to horseradish peroxidase (HRP) (CalBiochem). […]
Measurement Label: IC50
Give the figure together with its unit, number first.

CC(=O)NC(CCCCNC(=O)c1cc(O)c(O)c(O)c1)C(=O)NC(CCCCNC(=O)c1cc(O)c(O)c(O)c1)C(=O)NC(CCCCNC(=O)c1cc(O)c(O)c(O)c1)C(N)=O (stereo not shown)    3 µM

// batch mode: one IC50 value per listed entry
1. NC(=O)C(CCCCNC(=O)C(CCCCNC(=O)C(CCCCNC(=O)c1cc(O)c(O)c(O)c1)NC(=O)c1cc(O)c(O)c(O)c1)NC(=O)C(CCCCNC(=O)c1cc(O)c(O)c(O)c1)NC(=O)c1cc(O)c(O)c(O)c1)NC(=O)C(CCCCNC(=O)C(CCCCNC(=O)c1cc(O)c(O)c(O)c1)NC(=O)c1cc(O)c(O)c(O)c1)NC(=O)C(CCCCNC(=O)c1cc(O)c(O)c(O)c1)NC(=O)c1cc(O)c(O)c(O)c1 (stereo not shown)
2. NC(=O)C(Cc1ccc(NC(=O)C(Cc2ccc(NC(=O)c3cc(O)c(O)c(O)c3)cc2)NC(=O)c2cc(O)c(O)c(O)c2)cc1)NC(=O)C(Cc1ccc(NC(=O)c2cc(O)c(O)c(O)c2)cc1)NC(=O)c1cc(O)c(O)c(O)c1 (stereo not shown)
3. NC(=O)C(CCCCNC(=O)C(CCCCNC(=O)c1cc(O)c(O)c(O)c1)NC(=O)c1cc(O)c(O)c(O)c1)NC(=O)C(CCCCNC(=O)c1cc(O)c(O)c(O)c1)NC(=O)c1cc(O)c(O)c(O)c1 (stereo not shown)

A)
1. 2 µM
2. 2 µM
3. 1 µM

----------
Give IC 50 (ug/ml) 2nd tier for every item shown.
System: UEA-1 binding sites on Caco-2 cell membrane preparations
Assay: Two tier competition assay: compound incubated alone with membranes, biotinylated UEA-1 added in next step
Design: species or system human
Settings: Table 8, galloyl constructs
Answers are plain numbers, in µg/mL.

NC(=O)C(CCCNC(=O)c1cc(O)c(O)c(O)c1)NC(=O)C(CCCNC(=O)c1cc(O)c(O)c(O)c1)NC(=O)C(CCCNC(=O)c1cc(O)c(O)c(O)c1)NC(=O)c1cc(O)c(O)c(O)c1 (centres unmarked) [MSI 34 #19]    1

// batch mode: one IC 50 (ug/ml) 2nd tier value per listed entry
1. NC(=O)C(CNC(=O)c1cc(O)c(O)c(O)c1)NC(=O)C(CNC(=O)c1cc(O)c(O)c(O)c1)NC(=O)c1cc(O)c(O)c(O)c1 (centres unmarked) [MSI 34 #9]
2. NC(=O)C(CNC(=O)C(CNC(=O)c1cc(O)c(O)c(O)c1)NC(=O)c1cc(O)c(O)c(O)c1)NC(=O)CCCCCNC(=O)C(CNC(=O)c1cc(O)c(O)c(O)c1)NC(=O)c1cc(O)c(O)c(O)c1 (centres unmarked) [MSI 39 #4]

A)
0.5
0.8

// batch mode: one IC 50 (ug/ml) 2nd tier value per listed entry
1. NC(=O)C(CCNC(=O)C(CCNC(=O)c1cc(O)c(O)c(O)c1)NC(=O)c1cc(O)c(O)c(O)c1)NC(=O)C(CCNC(=O)c1cc(O)c(O)c(O)c1)NC(=O)c1cc(O)c(O)c(O)c1 (centres unmarked) [MSI 34 #6]
2. NC(=O)C(CCCCNC(=O)c1cc(O)c(O)c(O)c1)NC(=O)c1cc(O)c(O)c(O)c1 (centres unmarked) [Cpd 6]

A)
1
8
